Test system: Nakaseomyces glabratus
Test: Antifungal activity against Candida glabrata 7804 incubated for 48 hrs by CLSI based liquid microdilution technique
Type: functional
readout: MIC80

| molecule | tested.system | reported.measurement |
| --- | --- | --- |
| CCN(C(=O)c1cc(-c2ccc(C)cc2)c(OCc2ccccc2)cc1OCc1ccccc1)c1ccc(CN2CCN(CC(O)(Cn3cncn3)c3ccc(F)cc3F)CC2)cc1 (stereo not drawn) | Nakaseomyces glabratus | 16 µg/mL |
| CCNC(=O)c1noc(-c2cc(-c3ccc(C)cc3)c(O)cc2O)c1-c1ccc(CN2CCN(C(=O)CCCOc3ccc(CN(C)CC(O)(Cn4cncn4)c4ccc(F)cc4F)cc3)CC2)cc1 (stereo not drawn) | Nakaseomyces glabratus | 16 µg/mL |
| CCN(C(=O)c1cc(-c2ccc(C)cc2)c(O)cc1O)c1ccc(CN2CCN(C(=O)CCCCCOc3ccc(CN(C)CC(O)(Cn4cncn4)c4ccc(F)cc4F)cc3)CC2)cc1 (stereo not drawn) | Nakaseomyces glabratus | 16 µg/mL |
| OC(Cn1cncn1)(Cn1cncn1)c1ccc(F)cc1F | Nakaseomyces glabratus | 16 µg/mL |
| CCNC(=O)c1noc(-c2cc(-c3ccc(C)cc3)c(O)cc2O)c1-c1ccc(CN2CCN(C(=O)CCCCCOc3ccc(CN(C)CC(O)(Cn4cncn4)c4ccc(F)cc4F)cc3)CC2)cc1 (stereo not drawn) | Nakaseomyces glabratus | 16 µg/mL |
| CCNC(=O)c1noc(-c2cc(-c3ccc(C)cc3)c(O)cc2O)c1-c1ccc(CN2CCOCC2)cc1 | Nakaseomyces glabratus | > 64 µg/mL |
| CCN(C(=O)c1cc(-c2ccc(C)cc2)c(O)cc1O)c1ccc(CN2CCN(C(=O)CCCOc3ccc(CN(C)CC(O)(Cn4cncn4)c4ccc(F)cc4F)cc3)CC2)cc1 (stereo not drawn) | Nakaseomyces glabratus | 16 µg/mL |
| CCN(C(=O)c1cc(-c2ccc(C)cc2)c(O)cc1O)c1ccc(CN2CCN(CC(O)(Cn3cncn3)c3ccc(F)cc3F)CC2)cc1 (stereo not drawn) | Nakaseomyces glabratus | 8 µg/mL |

----------
Below, each entry is listed with its recorded MIC80.
Test system: Pichia kudriavzevii
Assay: Antifungal activity against Candida krusei 10153 incubated for 48 hrs by CLSI based liquid microdilution technique
Type: functional
readout: MIC80 (µg/mL)

| molecule | readout | measurement.units | censoring.operator | reported.measurement |
| --- | --- | --- | --- | --- |
| CCN(C(=O)c1cc(-c2ccc(C)cc2)c(OCc2ccccc2)cc1OCc1ccccc1)c1ccc(CN2CCN(CC(O)(Cn3cncn3)c3ccc(F)cc3F)CC2)cc1 (stereo not drawn) | MIC80 | µg/mL | > | 64 |
| OC(Cn1cncn1)(Cn1cncn1)c1ccc(F)cc1F [FLUCONAZOLE] | MIC80 | µg/mL | = | 64 |
| CCN(C(=O)c1cc(-c2ccc(C)cc2)c(O)cc1O)c1ccc(CN2CCN(C(=O)CCCOc3ccc(CN(C)CC(O)(Cn4cncn4)c4ccc(F)cc4F)cc3)CC2)cc1 (stereo not drawn) | MIC80 | µg/mL | = | 16 |
| CCNC(=O)c1noc(-c2cc(-c3ccc(C)cc3)c(O)cc2O)c1-c1ccc(CN2CCN(C(=O)CCCCCOc3ccc(CN(C)CC(O)(Cn4cncn4)c4ccc(F)cc4F)cc3)CC2)cc1 (stereo not drawn) | MIC80 | µg/mL | > | 64 |
| CCN(C(=O)c1cc(-c2ccc(C)cc2)c(O)cc1O)c1ccc(CN2CCN(C(=O)CCCCCOc3ccc(CN(C)CC(O)(Cn4cncn4)c4ccc(F)cc4F)cc3)CC2)cc1 (stereo not drawn) | MIC80 | µg/mL | = | 32 |
| CCN(C(=O)c1cc(-c2ccc(C)cc2)c(O)cc1O)c1ccc(CN2CCN(CC(O)(Cn3cncn3)c3ccc(F)cc3F)CC2)cc1 (stereo not drawn) | MIC80 | µg/mL | = | 16 |
| CCNC(=O)c1noc(-c2cc(-c3ccc(C)cc3)c(O)cc2O)c1-c1ccc(CN2CCOCC2)cc1 | MIC80 | µg/mL | > | 64 |
| CCNC(=O)c1noc(-c2cc(-c3ccc(C)cc3)c(O)cc2O)c1-c1ccc(CN2CCN(C(=O)CCCOc3ccc(CN(C)CC(O)(Cn4cncn4)c4ccc(F)cc4F)cc3)CC2)cc1 (stereo not drawn) | MIC80 | µg/mL | > | 64 |

----------
Test: Cytotoxicity against HUVEC cells measured after 72 hrs by CCK8 assay
Assay type: toxicity, cell-based
Conditions: human

| molecule | IC50 at 72 h [nM] |
| --- | --- |
| CCNC(=O)c1noc(-c2cc(-c3ccc(C)cc3)c(O)cc2O)c1-c1ccc(CN2CCOCC2)cc1 | 680 |
| CCN(C(=O)c1cc(-c2ccc(C)cc2)c(O)cc1O)c1ccc(CN2CCN(CC(O)(Cn3cncn3)c3ccc(F)cc3F)CC2)cc1 (configuration not stated) | 2100 |

----------
Test: Cytotoxicity against human L02 cells measured after 72 hrs by CCK8 assay
Assay type: toxicity, cell-based
Below, each entry is listed with its recorded IC50 at 72 h.

| molecule | IC50 at 72 h |
| --- | --- |
| CCNC(=O)c1noc(-c2cc(-c3ccc(C)cc3)c(O)cc2O)c1-c1ccc(CN2CCOCC2)cc1 | 680 nM |
| CCN(C(=O)c1cc(-c2ccc(C)cc2)c(O)cc1O)c1ccc(CN2CCN(CC(O)(Cn3cncn3)c3ccc(F)cc3F)CC2)cc1 (configuration not stated) | 2100 nM |

Taken from ChEMBL document CHEMBL6096686.
